assay: HUVEC growth inhibition – cell-based, human, primary screen (AID 575); conditions: HUVEC proliferation, CellTiter-Glo luminescence, 72 h; at 10 µM; stronger effect = lower value;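 also: 100% = median of untreated cell wells with 0.1% DMSO on each plate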
measuredEndpoint: viability (%)
Dear colleague, please return just the value in %, with no unit written.

Take a look at these entries with their results.
INSERT INTO measurements (compound, valuereported) VALUES
  ('COc1ccc(-c2ccc(-c3nnn(CC(C)=O)n3)cc2)cc1', 105),
  ('CCCCN(CCCNC(=O)C1CCN(S(=O)(=O)CC)CC1)c1ccccc1', 97.3),
  ('Oc1c(I)cc(I)c2cccnc12', 71.3);

// fetch viability given entry `CCNc1oc(COc2cccc(C)c2)nc1C#N`
101

Answer with reported viability of O=C(NCc1ccc2c(c1)OCO2)C1CCC(CNS(=O)(=O)c2ccccc2)CC1 (stereo unspecified)
78.9

State its viability: `Cc1ccc(-c2nc3cc(N)ccc3o2)cc1`
72.6

Return viability (reported value) for this compound: COC(=O)c1sc(N)c(C(=O)OC)c1COC(=O)C1CC(=O)N(Cc2ccco2)C1 (stereo unspecified)
103

Please list viability recorded for the compound `c1cncc(-c2nc3c4ccccc4nc(N4CCC(N5CCCCC5)CC4)n3n2)c1`
80.1

Query viability for COCCc1ccc(OCC(O)CNC(C)C)cc1 (stereo unspecified)
70.4

Please give the documented viability of `CC(=O)c1c(OCC(=O)O)ccc2c(C)cc(=O)oc12`
101

Report viability for `CC(C)(C)OC(=O)N1CCOCCOCCN(C(=O)OC(C)(C)C)CCOCCOCC1`
83

###

assay: HUVEC growth inhibition – cell-based, human, primary screen (AID 575); settings: HUVEC proliferation, CellTiter-Glo luminescence, 72 h; at 10 µM;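 also: 100% = median of untreated cell wells with 0.1% DMSO on each plate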
Calls of active or inactive are those of the source.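 How the source made its calls: active means viability at or below 30% in both replicate assays; inconclusive means viability at or below 30% in just one of the two assays; inactive means the rest.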
Select the correct class. Options are yes (1) = active, no (0) = inactive and nothing else.

Before answering, review these 5 worked examples.
INSERT INTO results (molecule, qualitativelabel) VALUES
  ('C#CCN1C(=O)C(O)(CC(=O)c2cc(OC)ccc2OC)c2ccccc21 (stereo not drawn)', 'no (0)'),
  ('C=CCn1c(SCn2nnc3ccccc3c2=O)nnc1-c1ccc(Br)cc1', 'no (0)'),
  ('Cn1c(SCC(=O)Nc2cccc3ccccc23)nc(O)cc1=O', 'no (0)'),
  ('C=CCOc1ccc(C2/C(=C(\O)c3c(C)[nH]c(C(=O)OC)c3C)C(=O)C(=O)N2CCN(C)C)cc1 (stereo not drawn)', 'no (0)'),
  ('Cc1cccc(NC(=O)c2cnc3sccn3c2=O)n1', 'no (0)');

Hi team, can someone confirm the assay call for O=C(Nc1ccccc1C(=O)N1CCOCC1)C1CCC(=O)N1C1CCCC1 (stereo not drawn) ?
no (0)

What classification did `c1ccc(-c2oc3ncnc(NCCN4CCOCC4)c3c2-c2ccccc2)cc1` end up with in this test?
no (0)

Could you check what this test reported for `NS(=O)(=O)c1cc2c(cc1Cl)NC(CSCc1ccccc1)=NS2(=O)=O` ?
no (0)

Give the logged outcome of this assay for the following molecule: `Cc1ccc(CNC(=O)CCCn2c(=O)c3ccccc3n(CC(=O)NCc3ccco3)c2=O)cc1`
no (0)

What classification did CC(=O)NC1CC2CCCC(C1)N2CC(=O)Nc1ccccc1 (stereo not drawn) end up with in this test?
no (0)

###

assay: reversal of MRP1-mediated doxorubicin resistance, pilot screen, H69AR cells, doxorubicin co-treatment (AID 601); conditions: H69AR cells, CellTiter-Glo, 72 h; compound alone cytotoxicity; at 10 µM
# viability annotations
Provide a numeric answer, followed by its unit.

INSERT INTO results (molecule, measuredendpoint, valuereported) VALUES
  ('Cc1cc(Oc2ccc(Cl)cc2)nc(-c2ccccc2O)n1', 'viability', '93.9%'),
  ('CCN(CC)S(=O)(=O)c1ccc2[nH]cc(C(=O)NCCC3=CCCCC3)c(=O)c2c1', 'viability', '3.36%'),
  ('Cn1c(C(=O)OCC(=O)NCC2CCCO2)cc2sccc21 (stereo unspecified)', 'viability', '92.7%'),
  ('CC(C)(Oc1ccc(CCNC(=O)c2ccc(Cl)cc2)cc1)C(=O)O', 'viability', '105%'),
  ('COCCNC(=S)c1ccc(OC)cc1', 'viability', '86%');

For `CCOC(=O)c1ccc(NC(=O)CSc2nnc(COc3ccccc3)n2C)cc1` , write its viability.
107%

Provide viability value for the following molecule: `CN1CCCc2cc(C#N)c(=O)[nH]c21`
107%

Note viability for the molecule shown: `COC(=O)Nc1nc2ccc(Sc3ccccc3)cc2[nH]1`
11.7%

Tell me its viability given COc1ccc(CCN2C(=O)CCC2(C)C(=O)NCc2cccnc2)cc1OC (stereo unspecified) as the entry.
89.2%

Look up and report measured viability for this entry: `Cn1cnc2c1c(=O)n(Cc1cccc(Br)c1)c(=O)n2C`
86.9%

Using the record for `CCc1cc2c(=O)c(-c3nc4ccccc4[nH]3)coc2cc1OC(=O)N1CCOCC1` , state its measured viability.
57.7%

###

experiment: reversal of MRP1-mediated doxorubicin resistance, pilot screen, H69AR cells, doxorubicin co-treatment (AID 601); settings: H69AR cells + 2 uM doxorubicin, CellTiter-Glo, 72 h; at 10 µM; stronger effect = higher value
measuredEndpoint: differential viability (reversal) (%)
Supply the numeric figure in %, leaving out any unit text.

// worked examples, differential viability (reversal) included
INSERT INTO measurements (compound, valuereported) VALUES
  ('O=C(O)C1CC=CCC1C(=O)Nc1cccc(C(=O)N2CCCCC2)c1 (stereo unspecified)', 7.67),
  ('COc1ccc(CN(C2CCCC2)S(=O)(=O)c2ccc(-n3cnnn3)cc2)cc1OC', -14),
  ('COc1ccc2cnn(-c3ccccc3C)c(=O)c2c1OC', -1.29),
  ('Cc1nc2ccccn2c(=O)c1CCN1CCC(C(=O)c2ccc(F)cc2)CC1', -15.1),
  ('COC(=O)c1ccc(CSc2nc3ccccc3c(=O)n2Cc2ccco2)o1', -7.85);

Please supply the value of reported differential viability (reversal) for the item `O=C(O)CCc1cc(I)c(Oc2ccc(O)c(I)c2)c(I)c1`
3.29

Give the value of differential viability (reversal) reported for the following: COc1ccc(CN(CC(=O)NCC2CCCO2)C(=O)CCC(=O)Nc2cc(C)on2)cc1 (stereo unspecified)
-4.07

For the compound `COc1ccc(S(=O)(=O)Nc2cccc(C)n2)c2ccccc12` , give its measured differential viability (reversal) value.
13.8

###

test: growth suppression of yeast trafficking mutant, preliminary HTS, modulators of trafficking downstream of Golgi apparatus project, 1536-format plate, OD 615 nm (AID 637); details: yeast transport mutant growth, absorbance 615 nm, 18 h; stronger effect = higher value
measuredEndpoint: inhibition (%)
Return type: number; implicit unit %.

INSERT INTO measurements (molecule, valuereported) VALUES
  ('CC(NC(=O)OCc1ccccc1)C(=O)N1CC(O)CC1C(=O)O (stereo unspecified)', -1.59);

Answer with reported inhibition of `c1ccc(CSCc2cn3ccsc3n2)cc1`
-3.49

Item `Cc1ccc2c(c1)-c1c(cnn1CC(=O)Nc1ccccc1N1CCN(C)CC1)CO2` : provide inhibition
-3.28

###

assay: reversal of MRP1-mediated doxorubicin resistance, pilot screen, H69AR cells, doxorubicin co-treatment (AID 601); conditions: H69AR cells, CellTiter-Glo, 72 h; compound alone cytotoxicity; at 10 µM
measuredEndpoint: viability (%)
Provide only the numeric value, understood in %.

INSERT INTO assay_data (molecule, valuereported) VALUES
  ('C/C(=N\O)C(=O)C(CN1CCCCC1)CN1CCCCC1', 8.43),
  ('COc1ccc(C)cc1NC(=O)CCC(=O)Nc1ccc2nc(N3CCN(C)CC3)cc(C)c2c1', 93.2),
  ('CCc1ccc(NC(=O)c2cc(-c3ccco3)on2)cc1', 91.3),
  ('CN(C)CCCN1c2ccccc2CCc2ccc(Cl)cc21', 65.2);

For the molecule `NS(=O)(=O)c1ccc(NC(=O)N[C@@H](Cc2ccccc2)C(=O)O)cc1` , give its measured viability value.
97.6

For the molecule O=C(O)c1cccc(NC(=O)C2C3C=CC(C3)C2C(=O)OCC(F)(F)C(F)F)c1 (stereo unspecified) , report viability.
89

Quick one: give measured viability for `CS(=O)(=O)N(CC(=O)NC1CC1)c1cccc(F)c1`
90

###

assay: reversal of MRP1-mediated doxorubicin resistance, pilot screen, H69AR cells, doxorubicin co-treatment (AID 601); settings: H69AR cells + 2 uM doxorubicin, CellTiter-Glo, 72 h; at 10 µM; stronger effect = higher value
Active and inactive are the calls of the source.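 How the source made its calls: active means viability loss from added drug above about 55%, and viability with drug at most 40%, in both replicates (limit read from the data, passing the limit was not always enough); inconclusive means both conditions met in only one replicate; inactive means neither replicate meets both conditions.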
measuredEndpoint: differential viability (reversal)

Worked cases, answers included:
INSERT INTO results (compound, measuredendpoint, valuereported) VALUES
  ('COCCn1c(N)c(C(=O)Nc2sc3c(c2C(=O)OC)CCCC3)c2nc3ccccc3nc21', 'differential viability (reversal)', '-0.35% (inactive)'),
  ('Cc1cccc(C)c1OCC(=O)Nc1cccc(NC(=O)c2ccco2)c1', 'differential viability (reversal)', '1.53% (inactive)'),
  ('O=C(Nc1ccccc1C(=O)NCCCn1ccnc1)c1ccccc1', 'differential viability (reversal)', '9.21% (inactive)'),
  ('CCOC(=O)CC(C#N)c1cn(C)c2ccccc12 (configuration not stated)', 'differential viability (reversal)', '-4.15% (inactive)'),
  ('Cc1ccc(S(=O)(=O)N2CCCC(c3nnc4n3-c3ccccc3SC4)C2)cc1 (configuration not stated)', 'differential viability (reversal)', '4.54% (inactive)');

Consider the compound `O=C(CCCNS(=O)(=O)c1ccccc1)NCc1ccco1` and give its recorded differential viability (reversal).
6.58% (inactive)

Input `C(=N/n1c2ccccc2c2ccccc21)/c1ccco1` , output reported differential viability (reversal).
-3.11% (inactive)

Answer with reported differential viability (reversal) of Cc1ccccc1-c1nc2ccccc2c(=O)n1C1CCS(=O)(=O)C1 (configuration not stated)
-9.98% (inactive)

Supply differential viability (reversal) value. Item: `COC(=O)c1cc(Br)ccc1-c1ccc(/C=N/n2nnnc2N)o1`
14% (inactive)

Supply differential viability (reversal) value. Item: `Nc1nc(CSc2nc3ccccc3[nH]2)nc(N2CCOCC2)n1`
0.96% (inactive)

Input `Clc1ccccc1OCCCCn1ccnc1` , output reported differential viability (reversal).
11.4% (inactive)

Provide one value: measured differential viability (reversal) of `Cc1cccc(-n2ncc3c(N)ncnc32)c1`
17.7% (inactive)

# credit: PubChem BioAssay
